Experiment: in vitro
Condition: rat, gh3-tre-luc cells, AC50 (uM) modified / 1000, Tox21_110001=Tox21_111893; viability, 1 nM T3 present, 24 h
Outcome Measure: CC50 at 24 h

Query O=C1c2ccccc2C(=O)C1C(=O)C(c1ccccc1)c1ccccc1 yields CC50 at 24 h of > 50 µM

* * *

Test system: GH3-TRE-Luc cell line
Condition: read-out: AC50 (uM) modified / 1000; Tox21_110001=Tox21_300312; viability, 1 nM T3 present, 24 h
Outcome Measure: CC50
Respond with a number, then the unit of measure.

Query N=C(N)c1ccc(OCCCCCOc2ccc(C(=N)N)cc2)cc1 [Pentamidine isethionate] yields CC50 of 41 µM

* * *

Experiment: in vitro
Condition: rat, gh3-tre-luc cells, AC50 (uM) modified / 1000, Tox21_110001=Tox21_301907; viability, 1 nM T3 present, 24 h
Outcome Measure: CC50 at 24 h

Query COP(=S)(OC)Oc1ccc(S(=O)(=O)N(C)C)cc1 yields CC50 at 24 h of > 90 µM

* * *

Test system: thyroid hormone receptor (TR)
Experiment: Classification of TR actives across characterization assays (TR-Ag / RXR-Ag; TR model binary)
Condition: TR-Ag = TR agonist, RXR-Ag = RXR agonist
Outcome Measure: Classification

| Compound | Tgt | Classification |
| --- | --- | --- |
| N[C@@H](Cc1ccc(Oc2cc(I)c(O)c(I)c2)c(I)c1)C(=O)O | thyroid hormone receptor (TR) | TR-Ag |
| O=C(O)Cc1cc(I)c(Oc2cc(I)c(O)c(I)c2)c(I)c1 | thyroid hormone receptor (TR) | TR-Ag |
| CC(C)(C)CC(C)(C)c1ccc(O)c(Cc2ccc(Cl)cc2Cl)c1 [Clofoctol, reference compound] | thyroid hormone receptor (TR) | RXR-Ag |
| C=C(c1ccc(C(=O)O)cc1)c1cc2c(cc1C)C(C)(C)CCC2(C)C [Bexarotene, reference compound] | thyroid hormone receptor (TR) | RXR-Ag |
| N[C@@H](Cc1cc(I)c(Oc2ccc(O)c(I)c2)c(I)c1)C(=O)[O-].[Na+] [3,3ʹ,5-Triiodo-L-thyronine sodium salt, reference compound] | thyroid hormone receptor (TR) | TR-Ag |
| CSCC[C@H](NC(=O)[C@H](Cc1ccc(OS(=O)(=O)O)cc1)NC(=O)[C@@H](N)CC(=O)O)C(=O)NCC(=O)N[C@@H](Cc1c[nH]c2ccccc12)C(=O)N[C@@H](CCSC)C(=O)N[C@@H](CC(=O)O)C(=O)N[C@@H](Cc1ccccc1)C(N)=O [Sincalide, reference compound] | thyroid hormone receptor (TR) | RXR-Ag |

Please state Classification for every compound in the list that follows.
1. CC1=C(/C=C/C(C)=C/C=C/C(C)=C/C(=O)O)C(C)(C)CCC1 [all trans-Retinoic acid, reference compound]
2. O=C(O)CCNC(=O)c1ccccc1 [Betamipron, reference compound]
3. N[C@@H](Cc1cc(I)c(Oc2cc(I)c(O)c(I)c2)c(I)c1)C(=O)O [Levothyroxine, reference compound]
4. Cc1cc(NC(=O)C(=O)O)cc(C)c1Oc1ccc(O)c2c1CCC2 [CP-634384, reference compound]
5. O=C(O)Cc1cc(I)c(Oc2ccc(O)c(I)c2)c(I)c1 [Tiratricol, reference compound]

RXR-Ag
TR-Ag
TR-Ag
TR-Ag
TR-Ag

Please state Classification for every compound in the list that follows.
1. CC1=C(/C=C/C(C)=C\C=C\C(C)=C\C(=O)O)C(C)(C)CCC1 [9-cis Retinoic acid, reference compound]
2. CC1=C(/C=C/C(C)=C/C=C/C(C)=C\C(=O)O)C(C)(C)CCC1 [13-cis Retinoic acid, reference compound]
3. COc1cc(C)c(/C=C/C(C)=C/C=C/C(C)=C/C(=O)O)c(C)c1C [Acitretin, reference compound]

1: RXR-Ag; 2: RXR-Ag; 3: RXR-Ag

Please state Classification for every compound in the list that follows.
1. N[C@@H](Cc1cc(I)c(Oc2ccc(O)c(I)c2)c(I)c1)C(=O)O [3,5,3ʹ-Triiodothyronine, reference compound]
2. C[C@]12CC[C@H]3C(=CCc4cc(O)ccc43)[C@@H]1CCC2=O [Equilin, reference compound]

1: TR-Ag; 2: RXR-Ag
